System: Plasmodium berghei
Assay: Screen against P. berghei liver stage (PbLuc), transformed with Luciferase, at 2uM
Type: functional, HepG2
Conditions: tested at 2 uM
About 2,700 (4%) of roughly 68,000 compounds showed an effect of 50% or more. This excerpt belongs to a sample that is enriched for strong results.
Classify: satisfied when INHIBITION is strictly less than 10%; not satisfied when INHIBITION is not.

Use the examples below as a reference point.
compound: CN1CCc2cc(C(=O)N(C)C)c(NCC3CC3)nc2CC1
category.label: not satisfied

compound: Cc1occc1C(=O)N1CCC2(CCC(=O)N(CC(N)=O)C2)CC1
category.label: satisfied

compound: CN1C[C@@H](NC(=O)c2cc(F)cc(F)c2)C[C@H]1C(=O)NCc1ncc[nH]1
category.label: satisfied

compound: CN1C[C@@H](NC(=O)C(C)(C)C)C[C@H]1C(=O)NCc1ncc[nH]1
category.label: not satisfied

compound: COc1cccc(OCC(=O)N(C)c2cccnc2N(C)C)c1
category.label: satisfied

Ask | Lab note: confirm whether the reported INHIBITION for this compound is below 10%, equality not counting. compound: O=C(c1ccc(O)nc1)N1CCc2ccc(O)cc2C1
Reply | not satisfied

Ask | Strictly below 10% in INHIBITION? O=C(c1cnc(OCC(F)(F)F)c(Cl)c1)N1CCc2ccc(O)cc2C1
Reply | not satisfied

Ask | Does CC(C)Oc1ncc(C(=O)N2CCc3ccc(O)cc3C2)cc1Cl have INHIBITION strictly under 10%?
Reply | not satisfied

Ask | Is it true that INHIBITION reported for CCC1CN(CC(=O)NCCN(CC)CC)c2ccccc2S1 (stereo unspecified) is less than 10%?
Reply | not satisfied

Ask | Lab note: confirm whether the reported INHIBITION for this compound is below 10%, equality not counting. compound: Cc1nn(C)c(C)c1CN(C)C(C(=O)O)c1ccc(F)cc1F (stereo unspecified)
Reply | not satisfied

Ask | Dear colleague, could you confirm whether INHIBITION of O=C(NCCCn1cccn1)C1CCC(=O)N(Cc2ccccc2F)C1 (stereo unspecified) falls below 10%? Thanks.
Reply | not satisfied

----------
Test system: Plasmodium berghei
Assay: Screen against P. berghei liver stage (PbLuc), transformed with Luciferase, at 2uM
Assay type: functional, HepG2
Settings: tested at 2 uM
The whole screen tested about 68,000 compounds, of which about 2,700 (4%) showed an effect of 50% or more. The sample as a whole holds a higher share of strong results than the screen did.
quantity.name: INHIBITION (%)
Unit % implied. Number only.

Before answering, review these 8 worked examples.
compound: O=C(CCN1CCOC1=O)Nc1cnn(-c2ccccc2Cl)c1
INHIBITION / %: 51.46
--
compound: Cc1cnc(NC2CCc3c(ccc(=O)n3C)C2)nc1 (stereo unspecified)
INHIBITION / %: 58.93
--
compound: CC(C)(C)CCNc1nccc(-c2c[nH][nH]c2=O)n1
INHIBITION / %: 22.5
--
compound: Cn1c2c(ccc1=O)CC(NC(=O)Cc1ccsc1)CC2 (stereo unspecified)
INHIBITION / %: 76.24
--
compound: O=C(Cc1ccsc1)NC1CCc2c(ccc(=O)n2CC2CC2)C1 (stereo unspecified)
INHIBITION / %: 6.85
--
compound: Cn1c2c(ccc1=O)CC(NC(=O)c1ccsc1)CC2 (stereo unspecified)
INHIBITION / %: 0.57
--
compound: CCc1cnc(NC2CCc3c(ccc(=O)n3C)C2)nc1 (stereo unspecified)
INHIBITION / %: -17.39
--
compound: CCN(CC)C(=O)[C@@H]1C[C@H](N)CN1C(=O)c1cc2c([nH]c1=O)CCC2
INHIBITION / %: 22.89

Ask | For the compound O=C(CCCN1CCOC1=O)Nc1cnn(-c2ccccc2Cl)c1 , give its measured INHIBITION value.
Reply | -16.28

Ask | Complete the entry with INHIBITION for Cn1c2c(ccc1=O)CC(Nc1ncc(F)cn1)CC2 (stereo unspecified)
Reply | 6.22

Ask | Give reported INHIBITION value for CCN(CC)C(=O)[C@@H]1C[C@@H](N)CN1C(=O)c1cc2c([nH]c1=O)CCC2
Reply | 56.16

----------
System: Plasmodium berghei
Experiment: Screen against P. berghei liver stage (PbLuc), transformed with Luciferase, at 2uM
Format: functional, HepG2
Conditions: tested at 2 uM
Out of some 68,000 compounds screened, about 2,700 (4%) showed an effect of 50% or more. The full list was thinned out, with strong results kept by preference.
# binning rule on INHIBITION: low (below 20%), medium (20% to below 40%), high (40% or more)

Solved entries:
molecule: CCc1ncc2c(n1)CN(CC(=O)Nc1nncs1)CC2
category.label: medium

molecule: CC(C)Cc1cc(NC(=O)c2ccc3[nH]nnc3c2)n(C)n1
category.label: high

molecule: CN(Cc1ncc(C(C)(C)C)o1)C1CCCN(c2cccnn2)C1 (stereo not given)
category.label: high

molecule: COCCOc1cccc(C(=O)N2CCCC(n3ccnc3C)C2)c1 (stereo not given)
category.label: medium

molecule: CCn1cncc1-c1nc2c([nH]1)CC(C)(C)CNC2=O
category.label: high

Ask | Please report the category associated with Cc1ccc(C2COCCN2C(=O)c2cccc(N(C)C)c2)o1 (stereo not given) , nothing else.
Reply | high

Ask | Sort CC(C)Cc1cc(NC(=O)c2ccccc2F)n(C)n1 into one of the categories.
Reply | low

Ask | Form: Item = CN(Cc1nc(-c2ccco2)no1)C1CCCN(c2cccnn2)C1 (stereo not given) ; Class = ?
Reply | medium

Ask | Class for COc1ccc(F)cc1CN1CCCC(c2cc(C(N)=O)[nH]n2)C1 (stereo not given) ?
Reply | medium

----------
Tested on: Plasmodium berghei
Test: Screen against P. berghei liver stage (PbLuc), transformed with Luciferase, at 2uM
Type: functional, HepG2
Conditions: tested at 2 uM
Screen size: about 68,000 compounds; about 2,700 (4%) showed an effect of 50% or more. This excerpt belongs to a sample that is enriched for strong results.
quantity.name: INHIBITION
Quick note: unit goes after the number.

compound: O=C(Nc1ncc[nH]1)c1cc(-c2cccnc2)n[nH]1
study.target: Plasmodium berghei
INHIBITION: -36.68%

Ask | Please give measured INHIBITION of the following entry: CN(C)C(=O)CN1CCn2cc(Cn3cccn3)nc2C1
Reply | 14.47%

Ask | Report INHIBITION for Cc1cc(C)c2nc(CN3CCC(CN)C3)cc(O)c2c1 (stereo unspecified)
Reply | 25.06%

Ask | Answer with reported INHIBITION of Cc1cc(C)c2nc(CN3CCC(C#N)CC3)cc(O)c2c1
Reply | 3.91%

Ask | Return the recorded INHIBITION value; entry: O=C(C1CC1)N1Cc2[nH]nc(COCc3cccnc3)c2C1
Reply | -14.61%

Ask | Check the records and state INHIBITION for Cc1noc(C2CCCN(C(=O)CCNc3ncccn3)C2)n1 (stereo unspecified)
Reply | 31.78%

----------
Tested on: Plasmodium berghei
Experiment: Screen against P. berghei liver stage (PbLuc), transformed with Luciferase, at 2uM
Assay type: functional, HepG2
Details: tested at 2 uM
In all, about 68,000 compounds went through this assay and about 2,700 (4%) showed an effect of 50% or more. Shown is part of a subset that was picked to be rich in strong results.
quantity.name: INHIBITION (%)
Quick note: give the figure in %, leave out the unit.

Ask | Supply INHIBITION value. Item: O=C1CCCN1CCN1CCC(c2ccn[nH]2)CC1
Reply | 33.26

Ask | Identify the reported INHIBITION for the following entry. CCn1c(C)cc(C(=O)NCc2cccc(NS(C)(=O)=O)c2)c1C
Reply | -6.29

----------
System: Plasmodium berghei
Test: Screen against P. berghei liver stage (PbLuc), transformed with Luciferase, at 2uM
Format: functional, HepG2
Details: tested at 2 uM
About 2,700 (4%) of roughly 68,000 compounds showed an effect of 50% or more. The entries come from a sample that favours strong results as a whole.
Reported INHIBITION is given for each of the following compounds.
Answer format: numeric, % implied, no suffix.

compound: O=C(N1CCCC1)N1CCN(c2ccc(Cl)nn2)C(=O)C1
quantity.name: INHIBITION
endpoint.unit: %
meas.value: 11.51

compound: c1ccc(CCN2CCOC(Cn3cccn3)C2)nc1 (stereo not drawn)
quantity.name: INHIBITION
endpoint.unit: %
meas.value: 23.71

compound: Cn1cc(-c2cnc(N3CCOCC3)nc2)cc1C(=O)NCCC#N
quantity.name: INHIBITION
endpoint.unit: %
meas.value: -0.45

# ---- query compound ----
Ask | Lab note: Plasmodium berghei assay, enter INHIBITION for CCn1cnnc1CNC(=O)N(C)Cc1ccc(F)c(F)c1 here
Reply | -2.9
